Reference for the values: patent US9670203B2

Target Or Test System: C-Raf (Y340D/Y341D) (Homo sapiens (Human), UniProt P04049, Y340D/Y341D)
Sequence (P04049 whole entry Y340D/Y341D): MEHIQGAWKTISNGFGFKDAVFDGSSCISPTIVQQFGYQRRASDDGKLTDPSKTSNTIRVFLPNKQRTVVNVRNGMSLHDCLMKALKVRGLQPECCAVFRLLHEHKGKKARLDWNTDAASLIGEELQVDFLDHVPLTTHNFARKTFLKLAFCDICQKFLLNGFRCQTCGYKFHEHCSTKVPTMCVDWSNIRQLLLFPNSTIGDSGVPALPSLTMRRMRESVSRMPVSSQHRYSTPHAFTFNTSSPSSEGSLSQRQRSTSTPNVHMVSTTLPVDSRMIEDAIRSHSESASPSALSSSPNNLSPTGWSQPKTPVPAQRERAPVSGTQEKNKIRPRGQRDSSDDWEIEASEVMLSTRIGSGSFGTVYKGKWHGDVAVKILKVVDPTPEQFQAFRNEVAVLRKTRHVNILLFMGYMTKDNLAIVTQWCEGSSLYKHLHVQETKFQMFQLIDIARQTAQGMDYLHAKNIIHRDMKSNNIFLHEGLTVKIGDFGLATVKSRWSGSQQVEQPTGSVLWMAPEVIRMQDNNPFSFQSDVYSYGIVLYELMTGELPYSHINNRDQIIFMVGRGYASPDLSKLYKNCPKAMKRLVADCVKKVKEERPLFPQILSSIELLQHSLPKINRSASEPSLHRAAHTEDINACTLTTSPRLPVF
Procedure Details: Raf IC50 assay, time-resolved fluorescence energy transfer, C-Raf (Y340D/Y341D)
Assay type: biochemical
Settings: 0.1 mM ATP
Values of IC50 strictly less than 0.3 nM map to Satisfied, and values of at least 0.3 nM map to Not satisfied.

[[record]]
line_notation = "O=C1CCc2c(Oc3ccc4c(c3)[C@H]3[C@H](NC(=O)Nc5ccc(Cl)c(C(F)(F)F)c5)[C@H]3O4)ccnc2N1"
category = "Not satisfied"

[[record]]
line_notation = "O=C1CCc2c(Oc3ccc4c(c3)[C@H]3[C@H](NC(=O)N[C@H]5CCCc6ccccc65)[C@H]3O4)ccnc2N1"
category = "Not satisfied"

[[record]]
line_notation = "O=C1CCc2c(Oc3ccc4c(c3)[C@H]3[C@H](NC(=O)Nc5ccc(C(F)(F)F)cc5F)[C@H]3O4)ccnc2N1"
category = "Not satisfied"

[[record]]
line_notation = "O=C1CCc2c(Oc3ccc4c(c3)[C@H]3[C@H](NC(=O)Nc5c(F)cccc5F)[C@H]3O4)ccnc2N1"
category = "Satisfied"

[[record]]
line_notation = "O=C1CCc2c(Oc3ccc4c(c3)[C@@H]3[C@@H](NC(=O)Nc5cccc(C(F)(F)F)c5)[C@@H]3O4)ccnc2N1"
category = "Not satisfied"

[[record]]
line_notation = "COc1cc(NC(=O)N[C@@H]2[C@H]3Oc4ccc(Oc5ccnc6c5CCC(=O)N6)cc4[C@@H]23)ccn1"
category = "Satisfied"

